The measurements presented in this section are drawn from the PolyMetriX glass transition set.

OBSERVABLE: glass transition temperature (°C)

P: *CC(F)(F)C(F)(F)C(F)(F)COC(=O)c1cc(OCCCCC)cc(C(=O)O*)c1 (repeat unit)
Q: *Oc1ccc(S(=O)(=O)c2ccc(Oc3ccc(C45CC6CC(CC(c7ccc(*)cc7)(C6)C4)C5)cc3)cc2)cc1 (repeat unit)
Exercise: Which of the two items, P and Q , has the greater recorded glass transition temperature? Please respond with the label that marks your chosen entry.
Solution: Q
(Q: 242.00 °C, P: -30.00 °C)

----------
OBSERVABLE: glass transition temperature (°C)

Below: 3 compounds and their reported glass transition temperature.
Input *CC(*)(C)C(=O)OC(OCC)C(F)(F)F (repeat unit) . Output glass transition temperature: 60.00

Input *CC(*)(C)C(=O)OCCN(C)c1ccc(/N=N/c2ccc([N+](=O)[O-])cc2)cc1 (repeat unit) . Output glass transition temperature: 110.00

Input *CCCO* (repeat unit) [Polyoxytrimethylene ] . Output glass transition temperature: -78

1: *CC(O)COc1c(C)cc(S(=O)(=O)c2cc(C)c(O*)c(C)c2)cc1C (repeat unit)
2: *c1ccc(Oc2ccc(C(c3ccc(Oc4ccc(-c5nc(-c6ccccn6)nnc5*)cc4)cc3)(C(F)(F)F)C(F)(F)F)cc2)cc1 (repeat unit)
3: *Oc1ccc(/N=C/CCC/C=N/c2ccc(OC(=O)NC3CC(C)(C)CC(C)(CNC(*)=O)C3)cc2)cc1 (repeat unit)
Exercise: Put the entries in order of glass transition temperature, starting with the largest number. Answer format: the labels, ordered as requested.
Solution: 2, 1, 3
